These data points were gathered from ChEMBL document CHEMBL3576816.

studyTarget: Human immunodeficiency virus type 1 reverse transcriptase (Human immunodeficiency virus 1) (UniProt Q72547)
testDetails: Inhibition of HIV1 reverse transcriptase
Calls of active or inactive are those of the source. No cut-off for these calls is given here.
observable: inhibition

In [3]: df
Out[3]:
                                   molecule  observable  recordedvalue
0  Cc1cn([C@H]2C[C@H](N3C(=O)CSC3c3c4ccccc4cc4ccccc34)[C@@H](CO[Si](C)(C)C(C)(C)C)O2)c(=O)[nH]c1=O (mixture of isomers)  inhibition       inactive
1  Cc1cn([C@H]2C[C@H](N3C(=O)CSC3c3ccc4[nH]ccc4c3)[C@@H](CO[Si](C)(C)C(C)(C)C)O2)c(=O)[nH]c1=O (mixture of isomers)  inhibition       inactive
2  Cc1cn([C@H]2C[C@H](n3nncc3-c3cccc4ccccc34)[C@@H](CO[Si](C)(C)C(C)(C)C)O2)c(=O)[nH]c1=O  inhibition       inactive
